# Procedure Summary: Maximum time to attain Cmax in mice after intraperitoneal administration of 10 mg/kg
# Type: ADME, organism-based
# Set-up: dose 10 mg/kg, route intraperitoneal
# Condition Set: mouse, in vivo, ip
Reported Metric: Tmax (min)
Lab book: enter the figure in min, no units written.

• Cl.N=C1CCCN1Cc1[nH]c(=O)[nH]c(=O)c1Cl [TIPIRACIL HYDROCHLORIDE] = 4.98

In the following, a different molecule is considered.
Prompt line: Quick one: give measured Tmax for "Nc1[nH]cc[n+]1Cc1[nH]c(=O)[nH]c(=O)c1Br"
Response line: 5

====

Measurement record for Thymidine phosphorylase (Escherichia coli K-12, UniProt P07650); quantity recorded: IC50.
// return the numeric value with its unit appended

Solved entries:
* Nc1c[n+](Cc2nc(O)nc(O)c2Cl)c[nH]1 | 7.3 µM
* Nc1c[n+](Cc2cc(O)nc(O)n2)c[nH]1 | 101 µM
* Nc1c[n+](Cc2nc(O)nc(O)c2Br)c[nH]1 | 6.5 µM
* O=c1[nH]c(Cn2cnc([N+](=O)[O-])c2)c(Cl)c(=O)[nH]1 | 7 µM

In the following, a different compound is considered.
Prompt line: Give Thymidine phosphorylase (Escherichia coli K-12, UniProt P07650) IC50 for the following compound: "O=[N+]([O-])c1cn(Cc2cc(O)nc(O)n2)cn1"
Response line: 13.8 µM

====

Consider the following compounds and their measured Cmax readings.
# Procedure Summary: Maximum plasma concentration in mice after oral administration of 20 mg/kg
# Format: ADME, organism-based
# Design: dose 20 mg/kg, route oral
# Condition Set: mouse
Lab book: enter the figure in ng/mL, no units written.

- Cl.N=C1CCCN1Cc1[nH]c(=O)[nH]c(=O)c1Cl [TIPIRACIL HYDROCHLORIDE]: 391

Prompt line: Quick one: give measured Cmax for "Nc1[nH]cc[n+]1Cc1[nH]c(=O)[nH]c(=O)c1Br"
Response line: 350

====

# Procedure Summary: Maximum time to attain Cmax in mice after oral administration of 20 mg/kg
# Format: ADME, organism-based
# Design: dose 20 mg/kg, route oral
# Condition Set: mouse, in vivo
Consider the following compounds and their measured Tmax readings.
Lab book: enter the figure in h, no units written.

Prompt line: Quick one: give measured Tmax for "Nc1[nH]cc[n+]1Cc1[nH]c(=O)[nH]c(=O)c1Br"
Response line: 1

Prompt line: Quick one: give measured Tmax for Cl.N=C1CCCN1Cc1[nH]c(=O)[nH]c(=O)c1Cl [TIPIRACIL HYDROCHLORIDE]
Response line: 1

====

# Procedure Summary: Maximum concentration was measured in mice after intraperitoneal administration of 10 mg/kg
# Assay type: ADME, organism-based
# Parameters: dose 10 mg/kg, route intraperitoneal
# Condition Set: mouse, in vivo, ip
Reported Metric: Cmax (ng/mL)
Lab book: enter the figure in ng/mL, no units written.

Prompt line: Quick one: give measured Cmax for Cl.N=C1CCCN1Cc1[nH]c(=O)[nH]c(=O)c1Cl [TIPIRACIL HYDROCHLORIDE]
Response line: 4450

====

# Procedure Summary: Bioavailability in mouse (dose 10 mg/kg i.p.)
# Format: ADME, organism-based
# Condition Set: in vivo, ip
Reported Metric: bioavailability

* Nc1[nH]cc[n+]1Cc1[nH]c(=O)[nH]c(=O)c1Br | 103%

Prompt line: Quick one: give measured bioavailability for Cl.N=C1CCCN1Cc1[nH]c(=O)[nH]c(=O)c1Cl [TIPIRACIL HYDROCHLORIDE]
Response line: > 100%
